# MHC values compiled below
System: human red blood cells
measurement-protocol: Detection of hemolytic activity
Format: cell-based
study-conditions: hemolytic concentration, in nM
property-measured: MHC (nM)

| compound | property-measured | unit-annotation | experimental-value |
| --- | --- | --- | --- |
| COc1ccc2c(c1)c(CC(=O)NC(Cc1ccc(-c3ccccc3)cc1)C(=O)NC1CC(C)(C)NC(C)(C)C1)c(C)n2C(=O)c1ccc(Cl)cc1 (stereo not shown) | MHC | nM | 4.2e+06 |
| CC(C(=O)NC(Cc1ccc(-c2ccccc2)cc1)C(=O)NC1CC(C)(C)NC(C)(C)C1)c1cccc(C(=O)c2ccccc2)c1 (stereo not shown) | MHC | nM | 4.9e+06 |
| CC(=O)Oc1ccccc1C(=O)NC(Cc1ccc(-c2ccccc2)cc1)C(=O)NC1CC(C)(C)NC(C)(C)C1 (stereo not shown) | MHC | nM | 5.8e+06 |
| COc1ccc2cc(C(C)C(=O)NC(Cc3ccc(-c4ccccc4)cc3)C(=O)NC3CC(C)(C)NC(C)(C)C3)ccc2c1 (stereo not shown) | MHC | nM | 5.1e+06 |
| C/C(=C1/c2ccc(F)cc2C(CC(=O)NC(Cc2ccc(-c3ccccc3)cc2)C(=O)NC2CC(C)(C)NC(C)(C)C2)C1C)c1ccc([S+](C)[O-])cc1 (stereo not shown) | MHC | nM | 4.1e+06 |
| CC1(C)CC(NC(=O)C(Cc2ccc(-c3ccccc3)cc2)NC(=O)c2cc3ccccc3n2Cc2ccccc2)CC(C)(C)N1 (stereo not shown) [PL-AC-15, reference compound] | MHC | nM | 1.6e+06 |
| CC1(C)CC(NC(=O)C(Cc2ccc(-c3ccccc3)cc2)NC(=O)Cc2ccccc2Nc2c(Cl)cccc2Cl)CC(C)(C)N1 (stereo not shown) | MHC | nM | 3e+06 |

---

measurement-protocol: Acute toxicity test of single administration to ICR mice
study-conditions: mouse, in vivo, intravenous, single tail vein injection, observed 7 days

| molecule | LD50 at 7 days [mg/kg] |
| --- | --- |
| C/C(=C1/c2ccc(F)cc2C(CC(=O)NC(Cc2ccc(-c3ccccc3)cc2)C(=O)NC2CC(C)(C)NC(C)(C)C2)C1C)c1ccc([S+](C)[O-])cc1 (stereo not shown) | 29.9 |
| CC1(C)CC(NC(=O)C(Cc2ccc(-c3ccccc3)cc2)NC(=O)Cc2ccccc2Nc2c(Cl)cccc2Cl)CC(C)(C)N1 (stereo not shown) | 39.8 |
| CC1(C)CC(NC(=O)C(Cc2ccc(-c3ccccc3)cc2)NC(=O)c2cc3ccccc3n2Cc2ccccc2)CC(C)(C)N1 (stereo not shown) [PL-AC-15, reference compound] | 23.6 |
| COc1ccc2c(c1)c(CC(=O)NC(Cc1ccc(-c3ccccc3)cc1)C(=O)NC1CC(C)(C)NC(C)(C)C1)c(C)n2C(=O)c1ccc(Cl)cc1 (stereo not shown) | 35.6 |
| CC(=O)Oc1ccccc1C(=O)NC(Cc1ccc(-c2ccccc2)cc1)C(=O)NC1CC(C)(C)NC(C)(C)C1 (stereo not shown) | 27.2 |
| CC(C(=O)NC(Cc1ccc(-c2ccccc2)cc1)C(=O)NC1CC(C)(C)NC(C)(C)C1)c1cccc(C(=O)c2ccccc2)c1 (stereo not shown) | 31.7 |
| COc1ccc2cc(C(C)C(=O)NC(Cc3ccc(-c4ccccc4)cc3)C(=O)NC3CC(C)(C)NC(C)(C)C3)ccc2c1 (stereo not shown) | 34.8 |
